Assignment: determine reported TGI for the given molecules.
system: A498 renal; experiment: NCI tumour cell line growth inhibition, 48 h
Numbers only, in µM.

Exercise: Entry CC(C)CCC[C@@H](C)[C@H]1CC[C@H]2[C@@H]3CC[C@H]4C[C@H](N)CC[C@]4(C)[C@H]3CC[C@]12C needs its TGI filled in; supply it.
Key: 57.5

Attention now shifts to the item below.
Exercise: Please report the measured TGI for N/C(=C\C(=O)n1nc(-c2ccccc2)cc1N)c1ccccc1
Key: 12.5

###

tested on: COLO 205 colon; test: NCI tumour cell line growth inhibition, 48 h
For each of the compounds below, state its GI50.

Parameter requested: GI50. Apply to each item below.
1. COC(=O)C1=C(C)NC(C)=C(C(=O)OC)C1/C=C(\Cl)c1ccc(Cl)c(Cl)c1
2. CN(Cc1ccc(Cl)cc1)c1ccc(CO)c(Cl)c1
3. CC(=O)N1N=C(c2ccc(Nc3nc(Nc4ccc(Cl)cc4)nc(Nc4ccc(Cl)cc4)n3)cc2)CC1c1ccc([N+](=O)[O-])cc1 (stereo not drawn)

Key:
17.9 µM
5.95 µM
1.82 µM
